target: Voltage-dependent L-type calcium channel subunit alpha-1C (Oryctolagus cuniculus, UniProt P15381); test: Antagonist activity at rabbit CaV1.2alpha1C transfected in HEK293 cells by FLIPR assay; format: cell-based
Sequence (P15381 whole entry): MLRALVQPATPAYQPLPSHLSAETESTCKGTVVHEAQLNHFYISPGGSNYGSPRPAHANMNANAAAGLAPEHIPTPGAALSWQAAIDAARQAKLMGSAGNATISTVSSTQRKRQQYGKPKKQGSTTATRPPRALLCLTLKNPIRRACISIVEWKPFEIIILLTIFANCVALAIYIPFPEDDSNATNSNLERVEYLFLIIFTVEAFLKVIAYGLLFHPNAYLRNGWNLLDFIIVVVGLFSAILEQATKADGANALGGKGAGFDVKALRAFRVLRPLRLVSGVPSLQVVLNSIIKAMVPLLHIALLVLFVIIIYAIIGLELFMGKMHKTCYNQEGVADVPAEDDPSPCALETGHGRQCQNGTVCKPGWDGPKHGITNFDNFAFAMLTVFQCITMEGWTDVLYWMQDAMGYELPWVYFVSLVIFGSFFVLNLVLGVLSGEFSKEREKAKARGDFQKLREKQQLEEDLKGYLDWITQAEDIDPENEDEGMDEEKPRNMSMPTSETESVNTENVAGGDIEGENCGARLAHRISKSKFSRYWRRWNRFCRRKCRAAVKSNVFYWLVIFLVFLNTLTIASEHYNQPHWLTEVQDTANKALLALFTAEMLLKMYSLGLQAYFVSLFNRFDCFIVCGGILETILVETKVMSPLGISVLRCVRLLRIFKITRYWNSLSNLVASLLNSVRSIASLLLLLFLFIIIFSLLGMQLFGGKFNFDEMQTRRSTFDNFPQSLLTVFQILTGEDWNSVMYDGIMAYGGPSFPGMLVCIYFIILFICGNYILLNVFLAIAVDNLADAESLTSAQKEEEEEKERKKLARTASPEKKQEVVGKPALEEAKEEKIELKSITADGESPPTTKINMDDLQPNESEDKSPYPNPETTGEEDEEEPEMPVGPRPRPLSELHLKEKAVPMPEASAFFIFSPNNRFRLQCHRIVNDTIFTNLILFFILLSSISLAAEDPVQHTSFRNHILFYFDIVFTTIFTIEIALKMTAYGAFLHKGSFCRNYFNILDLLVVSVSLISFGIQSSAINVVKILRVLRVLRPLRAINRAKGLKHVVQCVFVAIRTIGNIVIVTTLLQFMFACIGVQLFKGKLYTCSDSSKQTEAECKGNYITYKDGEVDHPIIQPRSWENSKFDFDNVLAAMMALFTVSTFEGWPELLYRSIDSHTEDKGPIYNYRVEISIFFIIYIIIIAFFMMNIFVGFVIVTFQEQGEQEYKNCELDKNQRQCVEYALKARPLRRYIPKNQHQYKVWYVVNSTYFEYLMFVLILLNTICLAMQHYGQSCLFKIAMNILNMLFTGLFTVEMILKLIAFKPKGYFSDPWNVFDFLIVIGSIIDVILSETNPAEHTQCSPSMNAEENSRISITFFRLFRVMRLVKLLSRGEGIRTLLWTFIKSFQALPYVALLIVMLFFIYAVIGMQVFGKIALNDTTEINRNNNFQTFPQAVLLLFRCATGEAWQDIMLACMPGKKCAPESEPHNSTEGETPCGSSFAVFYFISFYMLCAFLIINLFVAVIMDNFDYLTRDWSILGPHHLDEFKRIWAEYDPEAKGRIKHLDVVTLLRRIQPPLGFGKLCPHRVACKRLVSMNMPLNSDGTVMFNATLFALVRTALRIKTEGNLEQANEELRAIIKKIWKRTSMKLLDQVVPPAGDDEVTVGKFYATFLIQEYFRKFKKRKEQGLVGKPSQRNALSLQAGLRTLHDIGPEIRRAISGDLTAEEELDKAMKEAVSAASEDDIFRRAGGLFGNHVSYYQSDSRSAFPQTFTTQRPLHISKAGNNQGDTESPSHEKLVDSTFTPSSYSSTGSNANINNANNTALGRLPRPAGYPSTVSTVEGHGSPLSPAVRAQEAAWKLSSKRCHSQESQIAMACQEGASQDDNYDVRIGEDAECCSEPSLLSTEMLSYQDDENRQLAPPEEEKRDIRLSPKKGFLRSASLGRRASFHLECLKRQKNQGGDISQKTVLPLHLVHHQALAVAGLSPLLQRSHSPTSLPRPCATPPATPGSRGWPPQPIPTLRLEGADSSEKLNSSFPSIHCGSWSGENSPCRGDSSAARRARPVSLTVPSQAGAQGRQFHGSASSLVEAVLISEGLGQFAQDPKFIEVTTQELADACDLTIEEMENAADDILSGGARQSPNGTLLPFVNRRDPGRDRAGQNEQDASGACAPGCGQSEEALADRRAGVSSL
measured attribute: IC50 (µM)

> print(dat)
                                   molecule  measured.attribute  prefix.operator  observed.value
1  O=C1CC(=O)N([C@H]2C[C@H]3CC[C@@H]2C3)C(=O)N1CCc1cccc(Cl)c1                IC50                >             100
2  O=C1CC(=O)N(C2CCCC2)C(=O)N1CCc1ccc(-c2ccccc2)cc1                IC50                =             5.4
3  CC1(C)CCC[C@H]1N1C(=O)CC(=O)N(CCc2cccc(Cl)c2)C1=O                IC50                =             4.7
4  CC(CN1C(=O)CC(=O)N(C2CCCC2)C1=O)c1cccc(Cl)c1 (centres undefined)                IC50                =            20.7
5  CC(C)C(=O)OCC1(N2C(=O)CC(=O)N(CCc3cccc(Cl)c3)C2=O)CCCC1                IC50                =            10.6
6  CC1CCC(N2C(=O)CC(=O)N(CCc3ccc(Cl)cc3)C2=O)C1 (centres undefined)                IC50                =            20.4
7  O=C1CC(=O)N(C2CCCC2)C(=O)N1CC(c1ccccc1)c1ccccc1                IC50                =             8.1
8  CC(C)(CN1C(=O)CC(=O)N(C2CCCC2)C1=O)c1cccc(C(F)(F)F)c1                IC50                =             4.2
9  CC1(C)[C@@H]2CC[C@@]1(C)[C@@H](N1C(=O)CC(=O)N(CCc3ccc(Cl)cc3)C1=O)C2                IC50                >             100
